Target: human CYP11B1 (Homo sapiens (Human))
Sequence (P15538 25-503): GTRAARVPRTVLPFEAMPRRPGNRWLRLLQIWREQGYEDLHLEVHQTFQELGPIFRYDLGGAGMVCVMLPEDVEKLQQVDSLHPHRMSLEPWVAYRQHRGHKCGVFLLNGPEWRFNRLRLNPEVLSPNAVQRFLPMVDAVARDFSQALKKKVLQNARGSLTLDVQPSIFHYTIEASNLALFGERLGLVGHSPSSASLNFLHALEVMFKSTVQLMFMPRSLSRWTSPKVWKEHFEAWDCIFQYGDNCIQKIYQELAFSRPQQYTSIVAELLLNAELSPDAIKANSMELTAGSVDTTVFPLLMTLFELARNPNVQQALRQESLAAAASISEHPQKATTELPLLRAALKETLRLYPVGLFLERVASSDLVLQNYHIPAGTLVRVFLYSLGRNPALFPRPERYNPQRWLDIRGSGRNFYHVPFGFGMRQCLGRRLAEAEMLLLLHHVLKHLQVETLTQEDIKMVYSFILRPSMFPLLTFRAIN
Experiment: V79-Human-CYP11B1 Assay
Settings: V79MZh11B1 cells, substrate deoxycorticosterone 100 nM, 25 min incubation
attribute_measured: IC50 (µM)
Answers are plain numbers, in µM.

compound_string | assayed_target | attribute_measured | reading_unit | value
Cc1nnc2n1-c1c(F)cc(-c3cncc(F)c3C3CC3)cc1CC2 | human CYP11B1 (Homo sapiens (Human)) | IC50 | µM | 2.29
Cc1c(F)cncc1-c1cc(F)c2c(c1)CCc1nnc(C)n1-2 | human CYP11B1 (Homo sapiens (Human)) | IC50 | µM | 1.42
Cc1nnc2n1-c1c(F)cc(-c3cncc(F)c3C(C)C)cc1CC2 | human CYP11B1 (Homo sapiens (Human)) | IC50 | µM | 3.97

With those in mind, consider the next compound.
What value of measured IC50 is listed for Cc1nnc2n1-c1c(F)cc(-c3cncc(F)c3Cl)cc1CC2 ?
9.8

The values you see were collected from patent US9278093B2.
